- condition.context: Liquid; Visual
test.readout: Critical pressure (kPa)

molecule: CC(C)(C)c1ccccc1
Critical pressure (kPa): 2900
//
molecule: CCC(C)c1ccccc1 (stereo not drawn)
Critical pressure (kPa): 3030
//
molecule: C[C@@H]1CCCC[C@@H]1C [cis-1,2-dimethylcyclohexane]
Critical pressure (kPa): 3350

----------
- condition.context: Liquid; Capillary flow
test.readout: Critical temperature (K)

compound: C=C(C)CC(C)(C)C
Critical temperature (K): 550.7

compound: C=C(C)C(=O)OCC [ethyl 2-methylpropenoate]
Critical temperature (K): 572

compound: CCN(CC)CCO
Critical temperature (K): 625.9

compound: COCCOCCOC
Critical temperature (K): 619.7

compound: C=CC(=O)OCC [ethyl propenoate]
Critical temperature (K): 555.2

compound: C=C(C)C(=O)OC [methyl methacrylate]
Critical temperature (K): 557.9

compound: C1CCSC1 [tetrahydrothiophene]
Critical temperature (K): 634.6

compound: Sc1ccccc1
Critical temperature (K): 689.2

compound: COC(C)CO (centres undefined)
Critical temperature (K): 596.6

compound: OCC1CCC(CO)CC1 (centres undefined) [1,4-bis(hydroxymethyl)cyclohexane]
Critical temperature (K): 800.3

compound: COC(=O)c1ccc(C(=O)OC)cc1 [dimethyl 1,4-benzenedicarboxylate]
Critical temperature (K): 779

compound: CCOC(=O)OCC [diethyl carbonate]
Critical temperature (K): 578.2

compound: Cn1cccc1
Critical temperature (K): 587.4

compound: COCCOCCOCCOC
Critical temperature (K): 681.2

compound: Cc1ccc(C=O)cc1
Critical temperature (K): 715.8

compound: O=C1OCCO1 [ethylene carbonate]
Critical temperature (K): 786

compound: COCCC#N
Critical temperature (K): 650.9

compound: C=C(C)C(=O)OCCCC [butyl 2-methyl-2-propenoate]
Critical temperature (K): 615.8

compound: CCCCCCCCOCCCCCCCC
Critical temperature (K): 727

compound: CN1CCCCC1
Critical temperature (K): 581.5

compound: CC(C)CCCC(C)CCCC(C)CCCCC(C)CCCC(C)CCCC(C)C (centres undefined)
Critical temperature (K): 805

compound: COCC(C)=O
Critical temperature (K): 584

compound: Cc1cccs1
Critical temperature (K): 602

compound: CC(=O)N(C)C [N,N-dimethylethanamide]
Critical temperature (K): 660.2

----------
- condition.context: Liquid; Capillary flow
test.readout: Critical temperature (K)

compound: COC(C)OC [3-methyl-2,4-dioxapentane]
observed.result: 511.6

compound: Cc1ccsc1 [3-methylthiophene]
observed.result: 607.3

compound: CC(C)C(O)C(C)(C)CO (stereo not drawn) [2,2,4-trimethyl-1,3-pentanediol]
observed.result: 708.2

compound: CCCCCCOCCCCCC [dihexyl ether]
observed.result: 663

compound: O=C1CCCN1 [2-pyrrolidinone]
observed.result: 789.1

compound: CN(C)C=O [dimethylformamide]
observed.result: 650.6

compound: COC(=O)OC [dimethyl carbonate]
observed.result: 556.3

compound: CCC(=O)OC(C)COC (stereo not drawn) [1-methoxypropan-2-yl propionate]
observed.result: 611.7

compound: C=CC(=O)OCC(CC)CCCC (stereo not drawn) [2-ethylhexyl 2-propenoate]
observed.result: 672.5

compound: SC1CCCCC1 [cyclohexanethiol]
observed.result: 669.6

compound: CC(C)C#N [2-methylpropanenitrile]
observed.result: 560.8

compound: COC(=O)CC(C)=O [methyl 3-oxobutanoate]
observed.result: 652.8

compound: OCCOc1ccccc1 [2-phenoxyethanol]
observed.result: 749.4

compound: CNC(C)=O [N-methylacetamide]
observed.result: 707.4

compound: c1ccc(Cc2ccccc2)cc1 [diphenylmethane]
observed.result: 770

compound: CC(C)C=O [2-methylpropanal]
observed.result: 519

compound: CC(=O)OCCOC(C)=O [ethylene diacetate]
observed.result: 654.9

compound: C=CC(=O)OC [methyl propenoate]
observed.result: 532.7

compound: OCCN1CCNCC1 [N-(2-hydroxyethyl)piperazine]
observed.result: 760

compound: CCOCCO [2-ethoxyethan-1-ol]
observed.result: 598.9

compound: C=C(C)OC(C)=O [1-methylvinyl ethanoate]
observed.result: 549.8

compound: CNC=O [N-methylformamide]
observed.result: 715.6

compound: c1cc[nH]c1 [pyrrole]
observed.result: 633.3
